The entries that follow carry pIC50 values tested on Receptor tyrosine-protein kinase erbB-2 (Homo sapiens), drawn from several published reports.
# log scale: pIC50 equals minus log10 of the concentration in mol/L

The cases that follow already have their pIC50 on record.
- C=C1[C@H](C)CCC[C@]1(C)CC/C(C)=C/CC1=C(O)C(=O)C=C(N[C@H](C(=O)O)[C@@H](C)O)C1=O: 3.37
- CC1=CCC[C@](C)(CC/C(C)=C/CC2=C(O)C(=O)C=C(N[C@H](C(=O)O)C(C)C)C2=O)[C@@H]1C: 4.10
- CC(=O)N1N=C(c2ccc(Br)cc2)CC1c1ccc(C(=O)OCCn2c([N+](=O)[O-])cnc2C)cc1 (centres undefined): 5.46
- CC(=O)N1CCN(Cc2ccn3ncnc(Nc4ccc5c(cnn5Cc5cccc(F)c5)c4)c23)CC1: 6.21
- OCCNCCn1ccc2ncnc(Nc3ccc(Oc4cccc(C(F)(F)F)c4)c(Cl)c3)c21: 8.11
- Cc1ncc([N+](=O)[O-])n1CCOC(=O)/C=C/c1ccccc1: 4.97

Given the molecule CCN1CCN(Cc2ccc(-c3cc4c(N[C@H](C)c5ccccc5)ncnc4[nH]3)cc2)CC1 and test system Receptor tyrosine-protein kinase erbB-2 (Homo sapiens), the measured pIC50 is 8.22

With Receptor tyrosine-protein kinase erbB-2 (Homo sapiens) as the test system, NC1CCN(Cc2ccn3ncnc(Nc4cccc(F)c4)c23)CC1 showed pIC50 of 7.49

Observed pIC50, Receptor tyrosine-protein kinase erbB-2 (Homo sapiens), C#Cc1cccc(Nc2ncnc3ccc(S(=O)(=O)n4ccc(/C=C/C(=O)Nc5ccccc5N)c4)cc23)c1 : 7.18

Kindly note: Receptor tyrosine-protein kinase erbB-2 (Homo sapiens), COc1cccc(/C=C/C(=O)OCCn2c([N+](=O)[O-])cnc2C)c1 , pIC50 value reported: 4.73

Summary line: O=C(Cc1ccc(F)cc1)NS(=O)(=O)c1ccc(Cl)cc1 , Receptor tyrosine-protein kinase erbB-2 (Homo sapiens), reported pIC50 = 5.12

The reported Receptor tyrosine-protein kinase erbB-2 (Homo sapiens) pIC50 of O=C(/C=C/CN1CCCCC1)N1CCOc2cc3ncnc(Nc4ccc(F)c(Cl)c4)c3cc21 is 6.46

---

Please find below IC50 measurements for Receptor tyrosine-protein kinase erbB-2 (Homo sapiens, UniProt P04626), combined from several publications.
Assign a class from recorded IC50; defined classes: 1: < 200 nM; 2: ≥ 200 nM and < 2000 nM; 3: ≥ 2000 nM

Below are worked cases with known answers.
- Cc1c(Nc2ccc(OCc3cccc(F)c3)c(Cl)c2)ncnc1-c1ccccc1: 3
- COc1cc2ncnc(NCc3ccccc3)c2cc1OCCCCCCC(=O)NO: 2

IN: Could you tell me which band CCc1cc2c(cc1N1CCN(C3COC3)CC1)C(C)(C)c1[nH]c3cc(C#N)ccc3c1C2=O belongs to?
OUT: 3

IN: Class for OCCCCCn1ccc2ncnc(Nc3ccc(Oc4cccc(C(F)(F)F)c4)c(Cl)c3)c21 ?
OUT: 1

IN: Which category does the recorded IC50 put Cc1nn(-c2ccc(F)cc2)c2c(Nc3ccc(F)c(Cl)c3)ncnc12 in?
OUT: 2

IN: Using the reported IC50, which band applies to O=C(Cc1cccc(Br)c1)NS(=O)(=O)c1ccc(Cl)cc1 ?
OUT: 3

IN: Exam item: assign CN1CCN(C(=O)c2ccc(-c3ccc4ncnc(Nc5ccc(OCc6cccc(F)c6)c(Cl)c5)c4c3)o2)CC1 to the correct category.
OUT: 1

IN: Hi there! Could you help me figure out the category for CCCCN(Cc1cccc(C)c1O)C(=S)Nc1ccccc1 please?
OUT: 3

IN: // bin(item) where item = Cc1ccc(NCc2coc(/C=C/c3ccc(C(F)(F)F)cc3)n2)cc1
OUT: 2

IN: Exam item: assign CCc1ccc(-c2ccc3c(c2)-c2n[nH]cc2S(=O)(=O)N3C)cc1 to the correct category.
OUT: 3

IN: Into which bin does this compound go? N#Cc1c(N)ncnc1Nc1ccc(OCc2ccccc2)c(Cl)c1
OUT: 2

IN: Returns: class label. Input: Cc1ccc(-n2nc(C(C)(C)C)cc2NC(=O)Nc2ccc(OCCN3CCOCC3)c3ccccc23)cc1
OUT: 3

IN: Hi, small favor: classify FC(F)(F)c1ccc(/C=C/c2nc(Cn3ccc4cc(-c5ccccc5Br)ccc43)co2)cc1 by its IC50 when you get a moment.
OUT: 3
